Test system: ATP;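 note: ATP exposure 15 min at 22 °C before imaging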
Assay: switch fluorescence ratio, 500 uM ATP over buffer (Cy3 cluster intensity, sum of 5 cycles each) (fold (ratio)); higher = stronger signal-on switching upon ATP binding; sequences stand for … in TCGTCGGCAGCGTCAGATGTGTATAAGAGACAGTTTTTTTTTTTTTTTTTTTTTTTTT…TC
Details: aptamer strand: ATP DNA aptamer (quencher-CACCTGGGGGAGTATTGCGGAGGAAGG + anchor), 100 nM annealed; ATP concentration: 500 uM
Outcome: met for switch fluorescence ratio of at least 1; not met for anything lower.

ordered_residues=TTAAGATGAG class_label="not met"

Check if switch fluorescence ratio >= 1 (inclusive). Item: AGGTTTTATT
not met

Continue with CTGGGGGTGG
not met

Continue with TTCTAAAAAT
met

What would you report for TGAAAATTAG ?
not met

Where these numbers come from: the supplement of paper PMC10126150
